Tested on: A549
Experiment: Cytotoxicity against human A549 cells after 72 hrs by MTS assay
Format: functional, cell-based
Conditions: Homo sapiens, A549, 72 h; read-out: IC50
The entries below are paired with their reported IC50.
Provide only the numeric value, understood in µM.

>>> quantitative_readout("CC[C@@H]1OC(=O)[C@@H](C)[C@H](O[C@H]2C[C@@](C)(OC)[C@@H](O)[C@H](C)O2)[C@H](C)[C@H](O[C@@H]2O[C@H](C)C[C@H](N(C)Cc3ccc(-c4cn(CCCCCCC(=O)NO)nn4)cc3)[C@H]2O)[C@@](C)(OC)C[C@H](C)C(=O)[C@@H](C)[C@@H](O)[C@@]1(C)O (stereo in doubt)")
2.29

Record summary for `CC[C@@H]1OC(=O)[C@@H](C)[C@H](O[C@H]2C[C@@](C)(OC)[C@](O)(CN(C)Cc3ccc(-c4cn(CCCCCCC(=O)NO)nn4)cc3)[C@H](C)O2)[C@H](C)[C@H](O[C@@H]2O[C@H](C)C[C@H](N(C)C)[C@H]2O)[C@@](C)(OC)C[C@H](C)C(=O)[C@@H](C)[C@@H](O)[C@@]1(C)O` : reported IC50 = 0.99

IC50 reading for `CC[C@@H]1OC(=O)[C@@H](C)[C@H](O[C@H]2C[C@@](C)(OC)[C@@H](O)[C@H](C)O2)[C@@H](C)[C@H](O[C@H]2O[C@@H](C)C[C@@H](N(C)C)[C@@H]2O)[C@](C)(O)C[C@H](C)CN(Cc2ccc(-c3cn(CCCCCCC(=O)NO)nn3)cc2)[C@H](C)[C@H](O)[C@@]1(C)O` : 8.28

====

Assay: Selectivity ratio of IC50 for African green monkey Vero cells to IC50 for human MCF7 cells
Format: ADME, cell-based
Details: Vero cells and MCF7 cells, read-out: Ratio IC50
measure: selectivity ratio
Number only, no unit.

Quick note, selectivity ratio for `CC[C@H]1OC(=O)[C@H](C)C(=O)[C@H](C)[C@@H](O[C@@H]2O[C@H](C)C[C@H](N(C)Cc3cccc(-c4cn(CCCCCCC(=O)NO)nn4)c3)[C@H]2O)[C@@](C)(OC)C[C@@H](C)C2=NCCN3C(=O)O[C@@]1(C)[C@H]3[C@H]2C` landed at 23

====

Biological target: Histone deacetylase 8 (Homo sapiens)
Sequence (Q9BY41 whole entry): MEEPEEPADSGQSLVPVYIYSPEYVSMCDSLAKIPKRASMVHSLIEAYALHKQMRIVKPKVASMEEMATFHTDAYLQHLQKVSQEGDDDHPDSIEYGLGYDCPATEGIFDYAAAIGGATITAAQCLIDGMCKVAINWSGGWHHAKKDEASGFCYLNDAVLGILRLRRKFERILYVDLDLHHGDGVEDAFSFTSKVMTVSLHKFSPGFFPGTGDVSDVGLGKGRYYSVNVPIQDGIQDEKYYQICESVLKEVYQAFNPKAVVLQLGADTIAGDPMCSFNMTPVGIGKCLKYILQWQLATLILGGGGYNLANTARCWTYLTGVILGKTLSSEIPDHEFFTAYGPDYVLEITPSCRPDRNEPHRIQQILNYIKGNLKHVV
Assay: Inhibition of recombinant HDAC8 (unknown origin) expressed in Escherichia coli BL21(DE3) after 60 mins using trichostatin A by label-free mass spectrometry-based SAMDI assay
pIC50 reference
Note: pIC50 values are expressed as the negative base-10 logarithm of concentration in M.

Sample answers from the record:
>>> quantitative_readout("CC[C@H]1OC(=O)[C@H](C)[C@@H](O[C@@H]2C[C@](C)(OC)[C@@](O)(CN(C)Cc3ccc(-c4cn(CCCC(=O)NO)nn4)cc3)[C@@H](C)O2)[C@@H](C)[C@@H](O[C@H]2O[C@@H](C)C[C@@H](N(C)C)[C@@H]2O)[C@](C)(OC)C[C@@H](C)C(=O)[C@H](C)[C@H](O)[C@]1(C)O")
5.60
>>> quantitative_readout("CC[C@@H]1OC(=O)[C@H](C)[C@@H](O[C@@H]2C[C@](C)(OC)[C@@](O)(CN(C)Cc3ccc(-c4cn(CCCCCC(=O)NO)nn4)cc3)[C@@H](C)O2)[C@@H](C)[C@@H](O[C@@H]2O[C@H](C)C[C@H](N(C)C)[C@H]2O)[C@](C)(O)C[C@@H](C)CN(C)[C@H](C)[C@@H](O)[C@]1(C)O")
6.10
>>> quantitative_readout("CC[C@H]1OC(=O)[C@@H](C)[C@H](O[C@H]2C[C@@](C)(OC)[C@@H](O)[C@H](C)O2)[C@H](C)[C@H](O[C@H]2O[C@@H](C)C[C@@H](N(C)Cc3ccc(-c4cn(CCCCCCC(=O)NO)nn4)cc3)[C@@H]2O)[C@@](C)(O)C[C@H](C)CN(C)[C@@H](C)[C@H](O)[C@@]1(C)O (stereo in doubt)")
6.50
>>> quantitative_readout("CC[C@H]1OC(=O)[C@H](C)[C@@H](O[C@@H]2C[C@](C)(OC)[C@H](O)[C@@H](C)O2)[C@H](C)[C@@H](O[C@@H]2O[C@H](C)C[C@H](N(C)C)[C@H]2O)[C@@](C)(O)C[C@@H](C)CN(Cc2ccc(-c3cn(CCCCCC(=O)NO)nn3)cc2)[C@@H](C)[C@@H](O)[C@]1(C)O")
5.63
>>> quantitative_readout("CC[C@@H]1OC(=O)[C@H](C)[C@@H](O[C@@H]2C[C@](C)(OC)[C@H](O)[C@@H](C)O2)[C@@H](C)[C@@H](O[C@@H]2O[C@H](C)C[C@H](N(C)Cc3cccc(-c4cn(CCCCCC(=O)NO)nn4)c3)[C@H]2O)[C@](C)(O)C[C@@H](C)CN(C)[C@H](C)[C@@H](O)[C@]1(C)O")
6.22

# pIC50 (compound: CC[C@H]1OC(=O)[C@@H](C)[C@H](O[C@H]2C[C@@](C)(OC)[C@@H](O)[C@H](C)O2)[C@H](C)[C@H](O[C@H]2O[C@@H](C)C[C@@H](N(C)Cc3ccc(-c4cn(CCCCCC(=O)NO)nn4)cc3)[C@@H]2O)[C@@](C)(O)C[C@H](C)CN(C)[C@@H](C)[C@H](O)[C@@]1(C)O (stereo in doubt) ) is 6.22

For record `CC[C@H]1OC(=O)[C@H](C)[C@@H](O[C@@H]2C[C@](C)(OC)[C@H](O)[C@@H](C)O2)[C@@H](C)[C@@H](O[C@H]2O[C@@H](C)C[C@@H](N(C)Cc3ccc(-c4cn(CCCC(=O)NO)nn4)cc3)[C@@H]2O)[C@](C)(OC)C[C@@H](C)C(=O)[C@H](C)[C@H](O)[C@]1(C)O` the listed pIC50 is 6.01

Data origin: ChEMBL document CHEMBL3734738
